Target: Rho-associated protein kinase 1 (Homo sapiens, UniProt Q13464)
Sequence (Q13464 whole entry): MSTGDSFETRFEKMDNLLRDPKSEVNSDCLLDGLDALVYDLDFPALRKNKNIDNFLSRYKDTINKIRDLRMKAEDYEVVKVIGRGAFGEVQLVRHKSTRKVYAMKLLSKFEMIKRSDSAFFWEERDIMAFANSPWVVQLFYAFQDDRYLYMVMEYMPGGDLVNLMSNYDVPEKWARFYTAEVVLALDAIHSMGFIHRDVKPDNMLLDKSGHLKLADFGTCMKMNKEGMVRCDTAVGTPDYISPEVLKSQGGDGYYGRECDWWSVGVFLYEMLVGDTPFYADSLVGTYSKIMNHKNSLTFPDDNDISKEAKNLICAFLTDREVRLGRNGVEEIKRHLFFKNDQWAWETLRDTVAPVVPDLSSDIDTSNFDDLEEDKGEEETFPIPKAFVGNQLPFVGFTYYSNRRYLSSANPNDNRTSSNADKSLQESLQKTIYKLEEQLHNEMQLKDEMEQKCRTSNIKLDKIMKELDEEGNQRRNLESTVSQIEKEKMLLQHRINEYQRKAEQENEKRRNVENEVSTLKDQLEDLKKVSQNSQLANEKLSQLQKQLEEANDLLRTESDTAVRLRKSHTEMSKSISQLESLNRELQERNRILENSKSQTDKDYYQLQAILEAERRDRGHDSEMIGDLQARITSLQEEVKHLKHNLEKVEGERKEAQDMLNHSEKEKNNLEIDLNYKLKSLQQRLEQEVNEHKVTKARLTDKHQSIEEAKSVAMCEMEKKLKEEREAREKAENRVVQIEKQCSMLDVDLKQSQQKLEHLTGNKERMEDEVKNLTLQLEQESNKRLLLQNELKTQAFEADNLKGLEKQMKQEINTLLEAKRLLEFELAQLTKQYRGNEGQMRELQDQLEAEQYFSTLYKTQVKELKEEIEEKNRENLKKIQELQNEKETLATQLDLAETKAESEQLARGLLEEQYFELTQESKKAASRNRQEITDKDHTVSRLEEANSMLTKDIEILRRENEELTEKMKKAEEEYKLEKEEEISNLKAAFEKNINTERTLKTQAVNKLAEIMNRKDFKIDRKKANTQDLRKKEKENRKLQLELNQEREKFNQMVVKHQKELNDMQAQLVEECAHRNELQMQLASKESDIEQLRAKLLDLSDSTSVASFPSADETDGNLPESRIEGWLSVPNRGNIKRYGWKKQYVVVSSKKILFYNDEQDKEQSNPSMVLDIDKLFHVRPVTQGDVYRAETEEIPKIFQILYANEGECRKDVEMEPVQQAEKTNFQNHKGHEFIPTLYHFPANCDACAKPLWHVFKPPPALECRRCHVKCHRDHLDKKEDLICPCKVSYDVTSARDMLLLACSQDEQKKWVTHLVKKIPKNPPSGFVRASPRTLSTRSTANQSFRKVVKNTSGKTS
reported property: IC50 (nM)

- CNC(=O)C[C@@H](NC(=O)c1ccc(-c2cn[nH]c2)c(C)c1)c1ccccc1: 41.1
